Tested on: SW-620 colon
Assay: NCI-60 one-dose screen, 48 h (100 = growth as untreated, 0 = no growth, -100 = all killed)
Conditions: 10 µM unless noted
About 83,000 compounds went through this panel and 20% of them were active in at least one assay; those are over-represented in the sample as a whole. The source made the active and inactive calls. Rule for the calls: active = growth percent below 10; inactive = the rest.
Items are presented alongside their recorded growth.
measure.name: growth

1. CCN(C(=O)c1ccc2c3c(cccc13)C=C2)c1ccccc1    111% (inactive)
2. O=C(CCc1nnc2sc(/C=C\c3ccccc3)nn12)c1nc2ccccc2[nH]1    118% (inactive)
3. NS(=O)(=O)c1ccc(C(=O)N/N=C(\CS(=O)(=O)c2ccccc2)c2cc3cc(Br)ccc3o2)cc1    94.6% (inactive)
4. CC1CCCCN1S(=O)(=O)c1ccc(CN=C=S)cc1 (configuration not stated)    -15.4% (active)
5. COc1ccc(/C=N/OCC(O)CN2CCC(O)CC2)cc1OC1CCCC1 (configuration not stated)    104% (inactive)
6. COc1cc(-c2nc3ccccc3o2)cc(CN2CCN(c3ccccc3)CC2)c1O    94.3% (inactive)
7. Oc1ccc2ccccc2c1C1NN=C(c2ccccc2)S1 (configuration not stated)    40.4% (inactive)
